Every entry's value here was drawn from patent US6297230A.

# Test system: MCF-7/MITOX cells
# protocol notes: In vitro antitumor activity, MCF-7/MITOX
# Format: cell-based
# assay context: Homo sapiens, MCF7/Mitox; MCF-7 breast, mitoxantrone resistant
value kind: IC50 (µg/mL)
Note: unit µg/mL is implicit; provide only the numeric part.

Look over these answered cases.
> print(dat)
                                   compound  value.kind  unit.of.measure  result.number
1  N#CC1CN1C(=O)Nc1ccccc1 (stereo not drawn) [AMP 404, 2-Cyanoaziridine-1-(N-phenyl)carboxamide]        IC50            µg/mL            0.8
2  CNC(=O)N1CC1C#N (stereo not drawn) [AMP 403, 2-Cyanoaziridine-1-(N-methyl)carboxamide]        IC50            µg/mL            2.3

Here is another compound to look at.
Consider the compound N#CC1CN1C(=O)Nc1ccc(C(F)(F)F)cc1 (stereo not drawn) tested on MCF-7/MITOX cells; state its IC50.
0.3

* * *

# Tested on: A-549 lung cancer cells
# protocol notes: In vitro antitumor activity, A-549 lung
# Assay type: cell-based
# assay context: Homo sapiens, A549
Listing of entries alongside the reported IC50.
Note: unit µg/mL is implicit; provide only the numeric part.

Determine from records and report IC50 for CCOC(=O)c1ccc(NC(=O)N2CC2C#N)cc1 (centres unmarked) [AMP 419]
1.5

Determine from records and report IC50 for N#CC1CN1C(=O)NC1CCCCC1 (centres unmarked) [AMP 413]
1.9

Determine from records and report IC50 for N#CC1CN1C(=O)Nc1ccc(C(F)(F)F)cc1 (centres unmarked) [AMP 416]
1.1

Determine from records and report IC50 for N#CC1CN1C(=O)Nc1ccccc1 (centres unmarked) [AMP 404, 2-Cyanoaziridine-1-(N-phenyl)carboxamide]
1.6

Determine from records and report IC50 for N#CC1CN1C(=O)NCc1ccccc1 (centres unmarked) [AMP 412, 2-Cyanoaziridine-1-(N-benzyl)carboxamide]
1.5

* * *

# System: 8226/S myeloma cells
# protocol notes: MTT growth inhibition, parental 8226 myeloma cells
# Assay type: cell-based, human
# assay context: Homo sapiens; Table 5; Sensitive (parental) 8226; read-out: IC50
value kind: IC50

> print(dat)
                                   molecule                target       result
1  N#CC1CN1C(=O)Nc1ccc(S(N)(=O)=O)cc1 (stereo not shown)  8226/S myeloma cells  > 100 µg/mL
2  N#CC1CN1C(=O)Nc1ccc([N+](=O)[O-])cc1 (stereo not shown)  8226/S myeloma cells    2.1 µg/mL
3  N#CC1CN1C(=O)Nc1ccc(C(F)(F)F)cc1 (stereo not shown)  8226/S myeloma cells    2.1 µg/mL
4  CCCCNC(=O)N1CC1C#N (stereo not shown) [AMP 414, 2-Cyanoaziridine-1-(N-butyl)carboxamide]  8226/S myeloma cells    2.8 µg/mL
5  N#CC1CN1C(=O)Nc1cccc2ccccc12 (stereo not shown)  8226/S myeloma cells      1 µg/mL
6  N#CC1CN1C(=O)Nc1ccc(F)cc1 (stereo not shown)  8226/S myeloma cells      1 µg/mL
7  N#CC1CN1C(=O)Nc1ccc(Cl)c(Cl)c1 (stereo not shown)  8226/S myeloma cells   0.27 µg/mL
8  CCNC(=O)N1CC1C#N (stereo not shown) [AMP 406, 2-Cyanoaziridine-1-(N-ethyl)carboxamide]  8226/S myeloma cells    3.1 µg/mL

Determine from records and report IC50 for CCOC(=O)CNC(=O)N1CC1C#N (stereo not shown)
5 µg/mL

Determine from records and report IC50 for N#CC1CN1C(N)=O (stereo not shown) [AMP 409, 2-cyanoaziridine-1-carboxamide, reference compound]
32 µg/mL

* * *

# Tested on: WiDr colon cancer cells
# protocol notes: In vitro antitumor activity, WiDr colon
# Type: cell-based
# assay context: Homo sapiens
# if measured IC50 < 1 µg/mL: y  # else: n

Before answering, review these 3 worked examples.
> print(dat)
                                   compound  label.class
1  N#CC1CN1C(=O)NC1CCCCC1 (stereo not shown) [AMP 413]            y
2  N#CC1CN1C(=O)Nc1ccc(C(F)(F)F)cc1 (stereo not shown) [AMP 416]            y
3  N#CC1CN1C(=O)NCc1ccccc1 (stereo not shown) [AMP 412, 2-Cyanoaziridine-1-(N-benzyl)carboxamide]            n

Confirm or reject: IC50 of CC(C)(C)NC(=O)N1CC1C#N (stereo not shown) [AMP 410] lies strictly below 1 µg/mL
n

* * *

# System: MCF-7/MITOX cells
# protocol notes: In vitro antitumor activity, MCF-7/MITOX
# Assay type: cell-based
# assay context: Homo sapiens, MCF7/Mitox; MCF-7 breast, mitoxantrone resistant
Listing of entries alongside the reported IC50.
Note: unit µg/mL is implicit; provide only the numeric part.

> print(dat)
                                   compound  value.kind  result.number
1  CC(C)(C)NC(=O)N1CC1C#N (centres unmarked)        IC50           20.1
2  N#CC1CN1C(=O)NCc1ccccc1 (centres unmarked) [AMP 412, 2-Cyanoaziridine-1-(N-benzyl)carboxamide]        IC50            0.7
3  N#CC1CN1C(=O)Nc1ccc(F)cc1 (centres unmarked)        IC50            0.6
4  N#CC1CN1C(=O)NC1CCCCC1 (centres unmarked)        IC50            1.9

Here is another compound to look at.
Determine from records and report IC50 for CCNC(=O)N1CC1C#N (centres unmarked) [AMP 406, 2-Cyanoaziridine-1-(N-ethyl)carboxamide]
1.4

* * *

# Test system: 8226/S myeloma cells
# protocol notes: MTT growth inhibition, parental 8226 myeloma cells
# Format: cell-based, human
# assay context: Homo sapiens; Table 5; Sensitive (parental) 8226; read-out: IC50
# Experimental: Microculture Tetrazolium (MTT) Assay for Tumor Cells Tumors are disaggregated into single cell suspensions using mechanical, hypoosmotic, and/or enzymatic (trypsin) methods. […] The intensity of the color is proportional to viable cell numbers and this is quantitated by spectrophotometric absorbance at 570 nm on a micro ELISA plate reader. The results are calibrated in % control absorbance from untreated tumor cells. […] IC50 was measured by MTT assay. […]
Listing of entries alongside the reported IC50.
Note: unit µg/mL is implicit; provide only the numeric part.

Look over these answered cases.
> print(dat)
                                   compound                target  result.number
1  N#CC1CN1C(=O)NCc1ccccc1 (centres unmarked) [AMP 412, 2-Cyanoaziridine-1-(N-benzyl)carboxamide]  8226/S myeloma cells            1.8
2  N#CC1CN1C(=O)Nc1ccccc1 (centres unmarked) [AMP 404, 2-Cyanoaziridine-1-(N-phenyl)carboxamide]  8226/S myeloma cells              1
3  CC(C)(C)NC(=O)N1CC1C#N (centres unmarked)  8226/S myeloma cells             20
4  CNC(=O)N1CC1C#N (centres unmarked) [AMP 403, 2-Cyanoaziridine-1-(N-methyl)carboxamide]  8226/S myeloma cells            3.3

Determine from records and report IC50 for N#CC1CN1C(=O)Nc1cccnc1 (centres unmarked)
2.2

* * *

# Test system: 8226/I-R myeloma cells
# protocol notes: MTT growth inhibition, imexon-resistant 8226 myeloma cells
# Type: cell-based, human
# assay context: Homo sapiens; Table 5; imexon-resistant 8226; read-out: IC50
Listing of entries alongside the reported IC50.
Note: unit µg/mL is implicit; provide only the numeric part.

Look over these answered cases.
> print(dat)
                                   compound                  target  result.number
1  N#CC1CN1C(=O)NCc1ccccc1 (stereo not drawn) [AMP 412, 2-Cyanoaziridine-1-(N-benzyl)carboxamide]  8226/I-R myeloma cells            2.2
2  N#CC1CN1C(=O)Nc1cccnc1 (stereo not drawn) [AMP 421]  8226/I-R myeloma cells            2.8
3  CCOC(=O)CNC(=O)N1CC1C#N (stereo not drawn) [AMP 420]  8226/I-R myeloma cells              6
4  N#CC1CN1C(=O)Nc1ccccc1 (stereo not drawn) [AMP 404, 2-Cyanoaziridine-1-(N-phenyl)carboxamide]  8226/I-R myeloma cells            1.5
5  N#CC1CN1C(=O)NC1CCCCC1 (stereo not drawn) [AMP 413]  8226/I-R myeloma cells             19

Determine from records and report IC50 for CCNC(=O)N1CC1C#N (stereo not drawn) [AMP 406, 2-Cyanoaziridine-1-(N-ethyl)carboxamide]
3.6

Determine from records and report IC50 for CCCCNC(=O)N1CC1C#N (stereo not drawn) [AMP 414, 2-Cyanoaziridine-1-(N-butyl)carboxamide]
2.8

Determine from records and report IC50 for N#CC1CN1C(N)=O (stereo not drawn) [AMP 409, 2-cyanoaziridine-1-carboxamide, reference compound]
48

Determine from records and report IC50 for N#CC1CN1C(=O)Nc1cccc2ccccc12 (stereo not drawn) [AMP 423]
2.1
